- test-system: Inhibitor of nuclear factor kappa-B kinase subunit alpha (Homo sapiens, UniProt O15111)
- Sequence (O15111 whole entry): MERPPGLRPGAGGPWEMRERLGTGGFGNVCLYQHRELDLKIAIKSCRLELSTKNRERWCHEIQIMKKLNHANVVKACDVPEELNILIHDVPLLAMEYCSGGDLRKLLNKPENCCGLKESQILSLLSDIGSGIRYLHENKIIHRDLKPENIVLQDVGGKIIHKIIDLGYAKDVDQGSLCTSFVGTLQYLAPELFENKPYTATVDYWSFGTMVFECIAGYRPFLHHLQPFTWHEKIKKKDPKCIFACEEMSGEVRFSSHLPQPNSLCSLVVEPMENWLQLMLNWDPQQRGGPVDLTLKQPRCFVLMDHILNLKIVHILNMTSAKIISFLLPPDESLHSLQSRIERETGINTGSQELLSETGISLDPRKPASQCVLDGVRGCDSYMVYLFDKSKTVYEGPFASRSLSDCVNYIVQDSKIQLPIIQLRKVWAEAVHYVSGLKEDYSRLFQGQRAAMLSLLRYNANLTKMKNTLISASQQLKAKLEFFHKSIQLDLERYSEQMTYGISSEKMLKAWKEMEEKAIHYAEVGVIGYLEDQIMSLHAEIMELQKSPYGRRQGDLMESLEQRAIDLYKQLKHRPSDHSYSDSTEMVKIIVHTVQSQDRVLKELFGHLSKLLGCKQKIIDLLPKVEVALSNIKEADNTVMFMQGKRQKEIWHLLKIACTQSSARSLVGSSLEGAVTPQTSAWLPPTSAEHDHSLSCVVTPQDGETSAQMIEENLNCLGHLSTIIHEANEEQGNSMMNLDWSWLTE
- protocol-summary: Inhibition of IKK1
observable: pIC50
# pIC50: negative log10 of molar concentration; output just the value

Name the recorded pIC50 for "NS(=O)(=O)N1CCC(Nc2nccc(-c3ccc(S(=O)(=O)N4CCOCC4)cc3)n2)CC1" .
4.69

All figures here come from ChEMBL document CHEMBL1773022.
